- measuredOn: pseudo-kinase domain (JH2) of human Wild Type JAK2 (Homo sapiens (Human), UniProt O60674, F794H/W659A/W777A)
- Sequence (O60674 536-812 W659A/W777A/F794H): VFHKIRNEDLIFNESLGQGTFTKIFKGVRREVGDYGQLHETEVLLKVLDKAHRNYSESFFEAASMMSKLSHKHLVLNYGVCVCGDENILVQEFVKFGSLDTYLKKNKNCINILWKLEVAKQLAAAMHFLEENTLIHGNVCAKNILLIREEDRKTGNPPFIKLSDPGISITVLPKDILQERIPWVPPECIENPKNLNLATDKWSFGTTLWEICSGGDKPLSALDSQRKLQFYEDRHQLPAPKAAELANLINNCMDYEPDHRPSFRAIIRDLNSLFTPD
- assayMethodText: JAK2 LanthaScreen JH2-WT Binding Assay
- appliedConditions: JAK2 JH2-WT 0.145 nM, 50 nM tracer, 1 hour at 25° C.; read-out: JH2BIND_WT IC50
Where a name gives a salt, the structure may show the parent alone.
# maps each entry to its IC50

Cc1[nH]ncc1-c1c(Cl)cccc1Nc1cc(NC(=O)C2CC2)nc2cc[nH]c(=O)c12 [Example 17, Trifluoroacetic Acid Salt]    0.5 to 1 µM
CSc1c(Nc2cc(NC(=O)C3CC3)nc3cc[nH]c(=O)c23)cccc1-c1cnn(C2CCOCC2)c1 [Example 12, Trifluoroacetic Acid Salt]    0.5 to 1 µM
O=C(Nc1cc(Nc2ccccc2OC(F)F)c2c(=O)[nH]ccc2n1)C1CC1 [Example 20, Trifluoroacetic Acid Salt]    1 to 10 µM
O=C(Nc1cc(Nc2cccc(-c3cnn(C4CCOCC4)c3)c2)c2c(=O)[nH]ccc2n1)C1CC1 [Example 6, Trifluoroacetic Acid Salt]    > 10 µM
O=C(Nc1cc(Nc2cccc(C(F)(F)F)c2-c2cn[nH]c2)c2c(=O)[nH]ccc2n1)C1CC1 [Example 18, Trifluoroacetic Acid Salt]    0.5 to 1 µM

Request: // fetch IC50 given entry COc1c(Nc2cc(NC(=O)C3CC3)nc3cc[nH]c(=O)c23)cccc1C(=O)NCC1CCOCC1 [Example 11, Trifluoroacetic Acid Salt]
Response: 1 to 10 µM

Request: // fetch IC50 given entry CNc1ccccc1Nc1cc(NC(=O)C2CC2)nc2cc[nH]c(=O)c12 [Example 22, Trifluoroacetic Acid Salt]
Response: > 10 µM

Request: // fetch IC50 given entry O=C(Nc1cc(Nc2ccccc2OC2CC2)c2c(=O)[nH]ccc2n1)C1CC1 [Example 24, Trifluoroacetic Acid Salt]
Response: 1 to 10 µM
